Listed here: items and their measured AIRE transcriptional activation functional score.
B1: library; numbered along this chain (parent)
chain: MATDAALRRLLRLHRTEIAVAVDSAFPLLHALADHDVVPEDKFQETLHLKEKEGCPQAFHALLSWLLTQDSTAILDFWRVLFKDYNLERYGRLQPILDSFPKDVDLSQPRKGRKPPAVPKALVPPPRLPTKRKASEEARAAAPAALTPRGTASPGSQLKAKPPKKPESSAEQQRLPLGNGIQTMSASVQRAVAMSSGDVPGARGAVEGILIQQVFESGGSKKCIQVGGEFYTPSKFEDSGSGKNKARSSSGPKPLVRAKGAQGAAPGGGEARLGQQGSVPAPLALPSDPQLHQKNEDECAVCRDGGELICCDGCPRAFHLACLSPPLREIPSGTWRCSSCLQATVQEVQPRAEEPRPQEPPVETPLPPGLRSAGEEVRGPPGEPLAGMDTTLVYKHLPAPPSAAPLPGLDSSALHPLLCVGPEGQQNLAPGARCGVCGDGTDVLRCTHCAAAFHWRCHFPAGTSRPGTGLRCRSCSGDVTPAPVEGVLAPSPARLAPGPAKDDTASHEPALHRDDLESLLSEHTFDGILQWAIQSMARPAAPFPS

# Variants of: B1
# method-summary: AIRE transcriptional activation functional score (insulin promoter-GFP; nonsense median 0, synonymous median 1) (normalised score); higher = higher AIRE activity (more reporter activation)
# condition-description: with insulin promoter-GFP reporter in HEK293
Note: the reply should be a number with no unit written.

mutation-code	value-reported
A451R	1.19

Record summary for `L62G` : reported AIRE transcriptional activation functional score = -0.253

Record summary for `V38M` : reported AIRE transcriptional activation functional score = 0.387

Entry `L366Q` , AIRE transcriptional activation functional score reported as 0.884

FYI, the data here is from the supplement of paper PMC12667976.
